- Tested on: Escherichia coli TOP10
- measurementNotes: shrunken log2 fold change of peptide-encoding DNA abundance (4.5 h post-induction vs induction); higher = less antimicrobial activity (less host growth inhibition)
- cond: time post-induction: 4.5 h; library: site-saturation at positions 5, 18, 19, 20
assayEndpoint: shrunken log2 fold change
Answer field: number only, no words.

// below: answered sequences
| sequenceEntry | target | assayEndpoint | numericResult |
| --- | --- | --- | --- |
| RRIRFRPPRLPRPRPRPEWQPRP | Escherichia coli TOP10 | shrunken log2 fold change | -0.00149 |
| RRIRIRPPRLPRPRPRPYSMPRP | Escherichia coli TOP10 | shrunken log2 fold change | -0.436 |
| RRIRWRPPRLPRPRPRPSQRPRP | Escherichia coli TOP10 | shrunken log2 fold change | -0.0741 |
| RRIRFRPPRLPRPRPRPCSCPRP | Escherichia coli TOP10 | shrunken log2 fold change | -0.879 |
| RRIRCRPPRLPRPRPRPMVKPRP | Escherichia coli TOP10 | shrunken log2 fold change | -0.228 |

Input: // query shrunken log2 fold change value for entry RRIRARPPRLPRPRPRPLIIPRP
Output: -0.415

Input: Quick one: shrunken log2 fold change of RRIRSRPPRLPRPRPRPERAPRP ?
Output: 0.399

Input: Item under review: RRIRRRPPRLPRPRPRPSHGPRP . Reported shrunken log2 fold change?
Output: 0.145

Input: If you can, please state the reported shrunken log2 fold change value of RRIRMRPPRLPRPRPRPCLEPRP .
Output: 0.126

Input: Dear colleague, I am looking for the recorded shrunken log2 fold change of the following sequence: RRIRMRPPRLPRPRPRPDCVPRP
Output: 1.71

Input: // query shrunken log2 fold change value for entry RRIRRRPPRLPRPRPRPMHVPRP
Output: 0.281

Input: Give the measured shrunken log2 fold change of RRIRVRPPRLPRPRPRPRPFPRP .
Output: 0.351

Input: Sample RRIRVRPPRLPRPRPRPVQRPRP — what was its shrunken log2 fold change?
Output: 0.167

Input: Give the measured shrunken log2 fold change of RRIRKRPPRLPRPRPRPAAYPRP .
Output: 0.361

Input: Record request: shrunken log2 fold change value, item RRIRPRPPRLPRPRPRPCLAPRP
Output: -0.109

---

- Test system: Escherichia coli TOP10
- measurementNotes: shrunken log2 fold change of peptide-encoding DNA abundance (4.5 h post-induction vs induction); higher = less antimicrobial activity (less host growth inhibition)
- cond: time post-induction: 4.5 h; library: site-saturation at positions 5, 18, 19, 20
assayEndpoint: shrunken log2 fold change
// response body must contain only the number

| sequenceEntry | assayEndpoint | numericResult |
| --- | --- | --- |
| RRIRQRPPRLPRPRPRPNTVPRP | shrunken log2 fold change | -0.369 |

Input: Reported shrunken log2 fold change for RRIRCRPPRLPRPRPRPSDIPRP : what is it?
Output: -0.814

Input: Would you mind telling me what shrunken log2 fold change value was observed for RRIRRRPPRLPRPRPRPVTAPRP ?
Output: 0.452

Input: Query (sequence): RRIRVRPPRLPRPRPRPHYYPRP ; field requested: shrunken log2 fold change
Output: 0.0781

---

- Test system: Escherichia coli TOP10
- measurementNotes: shrunken log2 fold change of peptide-encoding DNA abundance (4.5 h post-induction vs induction); higher = less antimicrobial activity (less host growth inhibition)
- cond: time post-induction: 4.5 h; library: site-saturation at positions 5, 18, 19, 20
assayEndpoint: shrunken log2 fold change
Number, no unit, nothing else.

| sequenceEntry | shrunken log2 fold change |
| --- | --- |
| RRIRLRPPRLPRPRPRPEPRPRP | 0.74 |
| RRIRGRPPRLPRPRPRPMMDPRP | 0.66 |
| RRIRPRPPRLPRPRPRPDNIPRP | -0.406 |

Input: Quick one: shrunken log2 fold change for RRIRTRPPRLPRPRPRPLNCPRP ?
Output: -0.405

---

Each item that follows carries a reported shrunken log2 fold change.
- Test system: Escherichia coli TOP10
- measurementNotes: shrunken log2 fold change of peptide-encoding DNA abundance (4.5 h post-induction vs induction); higher = less antimicrobial activity (less host growth inhibition)
- cond: time post-induction: 4.5 h; library: site-saturation at positions 5, 18, 19, 20

| sequenceEntry | shrunken log2 fold change |
| --- | --- |
| RRIRGRPPRLPRPRPRPCNLPRP | -0.0958 |
| RRIRRRPPRLPRPRPRPNESPRP | 0.137 |
| RRIRWRPPRLPRPRPRPHPTPRP | 0.115 |
| RRIRPRPPRLPRPRPRPCCIPRP | -0.269 |
| RRIRLRPPRLPRPRPRPHQGPRP | -0.0634 |
| RRIRVRPPRLPRPRPRPKFAPRP | 0.0713 |
| RRIRARPPRLPRPRPRPASLPRP | 0.196 |

Now consider a different sequence.
Input: Name the recorded shrunken log2 fold change for RRIRPRPPRLPRPRPRPQETPRP .
Output: 0.134

---

- Test system: Escherichia coli TOP10
- measurementNotes: shrunken log2 fold change of peptide-encoding DNA abundance (4.5 h post-induction vs induction); higher = less antimicrobial activity (less host growth inhibition)
- cond: time post-induction: 4.5 h; library: site-saturation at positions 5, 18, 19, 20
Is shrunken log2 fold change at least 0.01? Then condition met. If not, condition not met.

| sequenceEntry | labelClass |
| --- | --- |
| RRIRARPPRLPRPRPRPDSFPRP | condition not met |
| RRIRNRPPRLPRPRPRPWCSPRP | condition not met |
| RRIRCRPPRLPRPRPRPESCPRP | condition not met |

We next turn to a different sequence, shown below.
Input: # check: shrunken log2 fold change of RRIRPRPPRLPRPRPRPNEVPRP is greater than or equal to 0.01
Output: condition met

---

- Tested on: Escherichia coli TOP10
- measurementNotes: shrunken log2 fold change of peptide-encoding DNA abundance (4.5 h post-induction vs induction); higher = less antimicrobial activity (less host growth inhibition)
- cond: time post-induction: 4.5 h; library: site-saturation at positions 5, 18, 19, 20
In this section, each of the sequences is paired with its reported shrunken log2 fold change.
API doc: respond with a numeric literal and nothing else, no unit.

Sample records with shrunken log2 fold change:
| sequenceEntry | numericResult |
| --- | --- |
| RRIRNRPPRLPRPRPRPSLHPRP | -0.621 |
| RRIRHRPPRLPRPRPRPIQDPRP | -0.00151 |
| RRIRHRPPRLPRPRPRPSYFPRP | -0.628 |

Input: What value of shrunken log2 fold change on Escherichia coli TOP10 does RRIRMRPPRLPRPRPRPQFLPRP have?
Output: -0.106

Input: Report shrunken log2 fold change for RRIRPRPPRLPRPRPRPMPIPRP tested on Escherichia coli TOP10.
Output: 0.0579

---

- Test system: Escherichia coli TOP10
- measurementNotes: shrunken log2 fold change of peptide-encoding DNA abundance (4.5 h post-induction vs induction); higher = less antimicrobial activity (less host growth inhibition)
- cond: time post-induction: 4.5 h; library: site-saturation at positions 5, 18, 19, 20
Param threshold (-0.1) applies to shrunken log2 fold change; output condition met when value >= threshold, condition not met when value < threshold.

| sequenceEntry | labelClass |
| --- | --- |
| RRIRVRPPRLPRPRPRPFHCPRP | condition not met |
| RRIRWRPPRLPRPRPRPFGEPRP | condition met |
| RRIRVRPPRLPRPRPRPTFTPRP | condition met |
| RRIRKRPPRLPRPRPRPGSGPRP | condition met |
| RRIRCRPPRLPRPRPRPVALPRP | condition met |
| RRIRSRPPRLPRPRPRPSNEPRP | condition not met |
| RRIRSRPPRLPRPRPRPRDMPRP | condition met |
| RRIRDRPPRLPRPRPRPMFVPRP | condition met |
| RRIRKRPPRLPRPRPRPDQVPRP | condition met |
| RRIRNRPPRLPRPRPRPWGGPRP | condition not met |

Input: Hello, I need to know if RRIRDRPPRLPRPRPRPIDKPRP has measured shrunken log2 fold change not below -0.1. Thanks!
Output: condition met

Input: Could you please find out whether RRIRMRPPRLPRPRPRPITFPRP has shrunken log2 fold change that meets -0.1 or exceeds it?
Output: condition met

Input: Does the reported shrunken log2 fold change for RRIRQRPPRLPRPRPRPEFAPRP fall at or above the -0.1 mark?
Output: condition met

---

- Tested on: Escherichia coli TOP10;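 note: peptides expressed intracellularly from a pBAD plasmid library in pooled LB shake-flask culture, induced with 0.3% L-arabinose, DNA abundance read by NGS, three biological replicates, DESeq2 with apeglm shrinkage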
- measurementNotes: shrunken log2 fold change of peptide-encoding DNA abundance (4.5 h post-induction vs induction); higher = less antimicrobial activity (less host growth inhibition)
- cond: time post-induction: 4.5 h; library: site-saturation at positions 5, 18, 19, 20
assayEndpoint: shrunken log2 fold change
# respond with the number and nothing more

Some entries whose results are on file:
| sequenceEntry | shrunken log2 fold change |
| --- | --- |
| RRIRWRPPRLPRPRPRPGVEPRP | 0.579 |
| RRIRIRPPRLPRPRPRPHVIPRP | -0.0939 |
| RRIRCRPPRLPRPRPRPDQTPRP | -0.00778 |
| RRIRKRPPRLPRPRPRPNTDPRP | -0.261 |
| RRIRPRPPRLPRPRPRPKDLPRP | -0.146 |
| RRIRKRPPRLPRPRPRPNINPRP | -0.169 |
| RRIRRRPPRLPRPRPRPIGQPRP | 0.182 |
| RRIRIRPPRLPRPRPRPRDWPRP | 0.429 |

Input: Reported shrunken log2 fold change, sequence RRIRGRPPRLPRPRPRPIEYPRP : ____
Output: 0.0165

Input: Tell me the measured shrunken log2 fold change of RRIRFRPPRLPRPRPRPRFKPRP , please.
Output: -0.281
